Each record here notes measured FACS-Seq fitted mean (log10).
B1: library; a variant is named by its letters at N, in order (parent)
chain: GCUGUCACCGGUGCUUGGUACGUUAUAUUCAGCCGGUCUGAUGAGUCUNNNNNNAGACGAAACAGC

Variants of: B1
test.summary: FACS-Seq fitted mean relative fluorescence mCherry/BFP with ligand (log10 relative fluorescence); HEK293T overexpressing SLC46A1; ligand concentration (+) FACS-Seq: 6 mM; higher = higher reporter protein expression
condition.label: with (6R,S)-folinic acid; ligand present: yes
# answer = number (no unit)

> print(dat)
                             query.sequence  data.value
1  GCUGUCACCGGUGCUUGGUACGUUAUAUUCAGCCGGUCUGAUGAGUCUACUUAGAGACGAAACAGC [ACUUAG]       0.402

### Prompt Give the measured FACS-Seq fitted mean (log10) of GCUGUCACCGGUGCUUGGUACGUUAUAUUCAGCCGGUCUGAUGAGUCUAUGCAAAGACGAAACAGC [AUGCAA] .
### Response 0.36

### Prompt Give the measured FACS-Seq fitted mean (log10) of GCUGUCACCGGUGCUUGGUACGUUAUAUUCAGCCGGUCUGAUGAGUCUGAUUGAAGACGAAACAGC [GAUUGA] .
### Response 0.519

### Prompt Give the measured FACS-Seq fitted mean (log10) of GCUGUCACCGGUGCUUGGUACGUUAUAUUCAGCCGGUCUGAUGAGUCUGUAGAAAGACGAAACAGC [GUAGAA] .
### Response 0.522

### Prompt Give the measured FACS-Seq fitted mean (log10) of GCUGUCACCGGUGCUUGGUACGUUAUAUUCAGCCGGUCUGAUGAGUCUAUGAAAAGACGAAACAGC [AUGAAA] .
### Response 0.656

### Prompt Give the measured FACS-Seq fitted mean (log10) of GCUGUCACCGGUGCUUGGUACGUUAUAUUCAGCCGGUCUGAUGAGUCUCAUUAUAGACGAAACAGC [CAUUAU] .
### Response 0.36

### Prompt Give the measured FACS-Seq fitted mean (log10) of GCUGUCACCGGUGCUUGGUACGUUAUAUUCAGCCGGUCUGAUGAGUCUAAAGGGAGACGAAACAGC [AAAGGG] .
### Response 0.631
